Target: GPR39 receptors on m39-20 cell lines (Mus musculus, UniProt Q5U431, T447P)
Construct: P2A-mCherry (C); expressed in transfected cells
Sequence (Q5U431 1-456 T447P): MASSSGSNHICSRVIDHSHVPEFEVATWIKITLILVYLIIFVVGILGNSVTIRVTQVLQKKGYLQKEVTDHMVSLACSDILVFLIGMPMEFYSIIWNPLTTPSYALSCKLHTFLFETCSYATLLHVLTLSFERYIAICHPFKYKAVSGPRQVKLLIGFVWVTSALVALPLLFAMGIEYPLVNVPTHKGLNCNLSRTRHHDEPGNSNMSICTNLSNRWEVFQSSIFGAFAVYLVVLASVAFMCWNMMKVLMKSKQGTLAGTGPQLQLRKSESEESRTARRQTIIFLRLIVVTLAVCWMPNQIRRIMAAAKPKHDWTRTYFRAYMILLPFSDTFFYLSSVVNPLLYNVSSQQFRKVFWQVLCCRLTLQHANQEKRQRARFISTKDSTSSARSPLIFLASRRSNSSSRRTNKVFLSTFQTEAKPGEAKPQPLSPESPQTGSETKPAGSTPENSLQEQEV
Experiment: FLIPR calcium imaging on m39-20 cell lines stably expressing murine-derived GPR39
Assay type: cell-based
Conditions: Only bile acid EC50, m39-20 cells, no zinc ions

CHEMICAL_SMILES: C[C@H](CCC(=O)NCCS(=O)(=O)O)[C@H]1CC[C@H]2[C@@H]3[C@H](O)C[C@@H]4C[C@H](O)CC[C@]4(C)[C@H]3C[C@H](O)[C@]12C
EC50: > 200 µM

CHEMICAL_SMILES: C[C@H](CCC(=O)NCC(=O)O)[C@H]1CC[C@H]2[C@@H]3CC[C@@H]4C[C@H](O)CC[C@]4(C)[C@H]3CC[C@]12C
EC50: > 200 µM
